# Target of assay: nCoV S (ACRO, SPN-C52H4) (SARS-CoV-2, UniProt P0DTC2 16-1213)
Exercise: state measured EC50 for each of the binders provided.
Please answer in the form of a number followed by its unit of measurement.

The examples below pair each entry with its known result.
Binder: P14-44 (antibody, V domains shown, also called candidate antibody molecule P14-44) VH: QVQLVQSGAEVKKPGASVKVSCKASGYIFTSYSMHWVRQAPGQGLEWMGTIKPSDDSTNYAQKFQGRVSMTRDTSTSTVYMELSSLRYEDTAVYYCAREARGYYDRSGYYHPGYFDYWGQGTLVTVSS VL: QSVLTQPASVSGSPGQSITISCTGTSSDVGGYNFVSWYQQHPGKAPKLMIYEVSDRPSGVSSRFSGSKSGNTASLTISGLQAEDEADYYCFSYTTSTTWVFGGGTKLTVL
Assay value: 0.0213 nM
--
Binder: P14-37 (antibody, V domains shown, also called candidate antibody molecule P14-37) VH: EVQLVESGGGLVKPGGSLRLSCAASGFTFSNAWMSWVRQAPGKGLEWVGRIKRNSDGGTTDHAAPVTGRFIISRDDSKNTLYLQMNSLRTEDTAVYYCTTDLDTVVRRVVITDHDAFDIWGQGTMVTVSS VL: DIQMTQSPSSLSASVGDRVTITCRASQSISSFLNWYQQKAGKAPKLLIYAASSLQSGVPSRFSGSGSGTDFSLTISNLQPEDFATYYCQQSYSTPSITFGQGTRLEIK
Assay value: 0.0161 nM
--
Binder: P3-11 (antibody, V domains shown, also called candidate antibody molecule P3-11) VH: QVQLVESGGGLVQPGGSLRLSCAASGITVSSNYMSWVRQAPGKGLEWVSVIYSGGSTFYADPVKGRLTISRDNSKNTLYLQMNSVRVEDTAVYYCARGEGWELPFDYWGQGALVTVSS VL: QSALTQPPSASGSPGQSVTISCTGTSSDVGGNKYVSWYQQHPGKAPKLIIYEVSKRPSGVPDRFSGSKSGNTASLTVSGLQAEDEADYHCSSYAGSNNLVFGGGTKLTVL
Assay value: 0.0226 nM
--
Binder: P5-22 (antibody, V domains shown, also called candidate antibody molecule P5-22) VH: EVQLVESGGGLVKPGGSLRLSCAASGFTFRDYDIIWIRQAPGKGLEWVSYISRSGSTIYYSDSVRGRFTISRDNAKNSVYLQMNSLRAEDTAVYYCARDFGFEGPRMDVWGQGTTVTVSS VL: DIQMTQSPSSLSASVGDRVTITCQASQDIKNYLNWYQQKPGKAPKLLIYDASNLETGVPSRFSGSGSGTDFTFTISSLQPEDIATYYCQQFDNLPITFGQGTRLEIK
Assay value: 0.0226 nM

Query: Please report EC50 for the following binder: P23-29 (antibody, V domains shown, also called candidate antibody molecule P23-29) VH: QVQLQESGPGLVKPSETLSLTCTVSGDSISSSTYYWGWIRQPPGKGLEWIGSMYYGRSTYYNPSLKSRVTVSVDTSKNQLSLKVSSVTAADTAVYYCARHLGGVDYWGQGTLVTVSS VL: DIQMTQSPSSLSASVGDRVTITCRASQGISNSLAWYQQEPGKAPKLLLYAASTLESGVPSRFSGSGSGADSTLTISSLQPEDFATYYCQQYYSASALTFGGGTKVEIK
Reply: 0.0364 nM
